Assay name: solubility in propylene carbonate solution of supporting electrolyte
Assay type: physicochemical
Conditions: propylene carbonate solution of LiCO4 (0.1 mol/L), organic solvent or mixture
Quantity: solubility (mM)
Kindly provide the numeric value in mM only, without the unit symbol.

>  <Compound>
COc1cccc(OC(C)C)c1-c1sc2c(sc3c(-c4ccccc4)c(-c4c(OC)cccc4OC(C)C)sc32)c1-c1ccccc1 [B-2]

>  <Unit of measure>
mM

>  <solubility>
6

$$$$

Moving on to the next compound.
Value lookup for solubility; key = COC(=O)c1ccc(-c2c(-c3c(OC)cccc3OC(C)C)sc3c2sc2c(-c4ccc(C(=O)OC)cc4)c(-c4c(OC)cccc4OC(C)C)sc23)cc1 [D-11] 9
